# Tested on: mouse lung fibrosis model induced by bleomycin (BLM)
# Experimental details: Inflammatory and fibrotic pathology (HE, Masson's trichrome) in BLM mouse fibrosis model
# Type: in vivo
# Design: scale not given here
# Particulars: 3 mg/kg intratracheal twice weekly x4 from Day 8, Day 21, HE staining, BLM model 2.25, negative control 0.36
Entries whose Inflammatory score Mean is below 1 take t; entries at or above 1 take f.

Some entries whose results are on file:
| Substance | Group |
| --- | --- |
| Ac-TQDAEDNTASH-NH2 [SEQ ID NO: 33] | f |
| Ac-TQDAEDPTAS-NH2 [SEQ ID NO: 25] | f |
| H-YRVRFLAKENVTQDAEDN-OH [SEQ ID NO: 50, reference compound] | f |
| Ac-TQDPEDNTAS-NH2 [SEQ ID NO: 26] | t |
| Ac-TQDAEDPTA-NH2 [SEQ ID NO: 22] | f |

Confirm or reject: Inflammatory score Mean of Ac-TQDAEDN-NH2 [SEQ ID NO: 06, Ac-Thr-Gln-Asp-Ala-Glu-Asp-Asn-NH2] lies strictly below 1
f

* * *

Recorded P-Smad2/3 content in lung tissue, ratio to model group, Mean(%) values for a group of substances are listed next.
# System: P-Smad2/3
# Experimental details: P-Smad2/3 content in lung tissue, BLM mouse fibrosis model
# Assay type: in vivo
# Particulars: single intratracheal dose 3 mg/kg on Day 7, lung 24 h later; BLM model group = 100.00
Give the number; % is assumed, so skip it.

Sample answers from the record:
| Substance | Result number |
| --- | --- |
| Ac-TQDAEDNTAS-NH2 [SEQ ID NO: 24] | 89.89 |
| cyclo[Thr-Gln-Asp-Pro-Glu-Asp-Asn] (TQDPEDN; cyclic peptide; MISC_FEATURE - head-to-tail backbone cyclization) [SEQ ID NO: 41] | 81.44 |
| Ac-Thr-Gln-Asp-Ala-Glu-Asp-Asn-Thr-Val-NH2 (Ac-TQDAEDNTV-NH2) [SEQ ID NO: 17] | 74.12 |
| Ac-TQDAEDNTQD-NH2 [SEQ ID NO: 49] | 91.98 |

Fill blank: measured P-Smad2/3 content in lung tissue, ratio to model group, Mean(%) of the substance Ac-Gln-Asp-Ala-Glu-Asp-Asn-NH2 (Ac-QDAEDN-NH2) [SEQ ID NO: 05] is ____.
72.35

Given Ac-TQDPAEDN-NH2 [SEQ ID NO: 48, Ac-Thr-Gln-Asp-Pro-Ala-Glu-Asp-Asn-NH2] , state its recorded P-Smad2/3 content in lung tissue, ratio to model group, Mean(%).
80.57

P-Smad2/3 content in lung tissue, ratio to model group, Mean(%) for Ac-TQDAEDPTA-NH2 [SEQ ID NO: 22] ?
55.32

Which P-Smad2/3 content in lung tissue, ratio to model group, Mean(%) reading was recorded for the substance Ac-TQDAEDNTVSFLQ-NH2 [SEQ ID NO: 36] ?
79.00

Suppose we examine the substance Ac-Thr-Gln-Asp-Ala-Glu-Asp-Leu-NH2 (Ac-TQDAEDL-NH2) [SEQ ID NO: 12] ; what P-Smad2/3 content in lung tissue, ratio to model group, Mean(%) value has been reported?
90.48

* * *

Recorded P-Smad2/3 content in lung tissue, ratio to model group, Mean(%), one value per entry.
# Test system: P-Smad2/3
# Experimental details: P-Smad2/3 content in lung tissue, BLM mouse fibrosis model
# Format: in vivo
# Particulars: single intratracheal dose 3 mg/kg on Day 7, lung 24 h later; BLM model group = 100.00
Bridge positions count the residues as written; N and C are the ends. Ends that are not written are not given here.

// solved cases for P-Smad2/3 content in lung tissue, ratio to model group, Mean(%) follow
| Substance | Result |
| --- | --- |
| Ac-TQDPEDN-NH2 [SEQ ID NO: 14, Ac-Thr-Gln-Asp-Pro-Glu-Asp-Asn-NH2] | 87.39% |
| Ac-Thr-Gln-Asp-Ala-Glu-Asp-Asn-Thr-Val-Ser-Phe-NH2 (Ac-TQDAEDNTVSF-NH2) [SEQ ID NO: 27] | 88.69% |

# input substance: Thr-Gln-cyclo[Asp-Ala-Glu-Asp-Asn-Lys] (TQDAEDNK; lactam 3-8) [SEQ ID NO: 42] ; wanted: its P-Smad2/3 content in lung tissue, ratio to model group, Mean(%)
85.16%

Name the recorded P-Smad2/3 content in lung tissue, ratio to model group, Mean(%) for Ac-Ser-Gln-Asp-Ala-Glu-Asp-Asn-NH2 (Ac-SQDAEDN-NH2) [SEQ ID NO: 07] .
80.71%

* * *

# Experimental system: binding of TSP-1 protein to CD36, a TSP-1 receptor protein (Homo sapiens, UniProt P07996)
# Construct: purchased novoprotein (TSP-1); R&D Systems (Fc-tagged CD36) CU45 (TSP-1); 1955-CD-050 (CD36-Fc)
# Sequence (P07996 19-1170): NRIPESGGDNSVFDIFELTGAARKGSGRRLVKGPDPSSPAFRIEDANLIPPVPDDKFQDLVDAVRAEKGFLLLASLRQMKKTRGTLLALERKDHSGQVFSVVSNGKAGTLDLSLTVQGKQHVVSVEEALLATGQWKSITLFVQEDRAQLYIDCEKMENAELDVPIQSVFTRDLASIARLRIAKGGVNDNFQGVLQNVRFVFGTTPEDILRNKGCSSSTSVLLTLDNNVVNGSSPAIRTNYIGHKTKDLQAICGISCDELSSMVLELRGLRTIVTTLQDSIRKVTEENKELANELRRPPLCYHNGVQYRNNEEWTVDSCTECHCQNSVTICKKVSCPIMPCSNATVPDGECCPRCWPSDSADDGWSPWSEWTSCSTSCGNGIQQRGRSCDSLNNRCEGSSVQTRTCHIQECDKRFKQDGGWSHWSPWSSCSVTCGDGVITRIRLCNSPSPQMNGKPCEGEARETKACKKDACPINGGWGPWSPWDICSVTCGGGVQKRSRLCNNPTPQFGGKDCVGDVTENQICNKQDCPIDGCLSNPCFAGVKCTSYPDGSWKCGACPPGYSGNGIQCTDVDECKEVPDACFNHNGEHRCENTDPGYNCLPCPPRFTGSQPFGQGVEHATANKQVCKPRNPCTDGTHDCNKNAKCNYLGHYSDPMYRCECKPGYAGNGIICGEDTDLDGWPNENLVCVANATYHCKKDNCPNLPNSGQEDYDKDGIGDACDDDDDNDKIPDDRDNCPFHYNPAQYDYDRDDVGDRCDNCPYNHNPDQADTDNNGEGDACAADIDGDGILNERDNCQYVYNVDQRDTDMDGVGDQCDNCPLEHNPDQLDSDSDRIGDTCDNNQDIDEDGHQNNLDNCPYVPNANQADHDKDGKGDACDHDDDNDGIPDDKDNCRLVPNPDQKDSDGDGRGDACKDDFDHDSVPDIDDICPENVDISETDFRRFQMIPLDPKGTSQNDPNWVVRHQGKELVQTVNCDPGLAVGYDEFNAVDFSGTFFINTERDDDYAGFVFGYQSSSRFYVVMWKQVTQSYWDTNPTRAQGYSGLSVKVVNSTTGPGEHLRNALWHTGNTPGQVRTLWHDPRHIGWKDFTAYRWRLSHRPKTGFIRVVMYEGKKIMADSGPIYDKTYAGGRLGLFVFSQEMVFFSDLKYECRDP
# Experimental details: ELISA: blocking of CD36 binding to TSP-1 protein
# Particulars: 3 h, 100 μM polypeptide, 0.25 μg/mL Fc-tagged CD36; blocking of CD36 binding to TSP-1; read-out: Blocking rate (Mean, %)
# inhibition at 100 µM listing for each entry below
Respond numerically; units are % and should not be typed.

// below: answered substances
| Substance | Parameter | Result number |
| --- | --- | --- |
| Ac-TQDAEDPTA-NH2 [SEQ ID NO: 22] | inhibition at 100 µM | 40.9 |
| Ac-TQDAEDPTAS-NH2 [SEQ ID NO: 25] | inhibition at 100 µM | 33 |
| Ac-TQDAEDNT-NH2 [SEQ ID NO: 15, Ac-Thr-Gln-Asp-Ala-Glu-Asp-Asn-Thr-NH2] | inhibition at 100 µM | 30.6 |
| Ac-TQDAEDNTVSFLQ-NH2 [SEQ ID NO: 36] | inhibition at 100 µM | 23.1 |
| Ac-TQDAEDNTAS-NH2 [SEQ ID NO: 24] | inhibition at 100 µM | 32.6 |

Query for binding of TSP-1 protein to CD36, a TSP-1 receptor protein (Homo sapiens, UniProt P07996): what inhibition at 100 µM does the record show for Ac-TQDPEDN-NH2 [SEQ ID NO: 14, Ac-Thr-Gln-Asp-Pro-Glu-Asp-Asn-NH2] ?
27.9

I'm curious: which inhibition at 100 µM was measured for Ac-QDAEDNTAS-NH2 [SEQ ID NO: 23] tested on binding of TSP-1 protein to CD36, a TSP-1 receptor protein (Homo sapiens, UniProt P07996)?
22.8

Query inhibition at 100 µM on binding of TSP-1 protein to CD36, a TSP-1 receptor protein (Homo sapiens, UniProt P07996) for Ac-TQDAEDN-NH2 [SEQ ID NO: 06, Ac-Thr-Gln-Asp-Ala-Glu-Asp-Asn-NH2]
17.7

Can you look up inhibition at 100 µM on binding of TSP-1 protein to CD36, a TSP-1 receptor protein (Homo sapiens, UniProt P07996) for Ac-TQDAEDNTASH-NH2 [SEQ ID NO: 33] ?
21.4

Identify the measured inhibition at 100 µM of Ac-TQDAEDNTQD-NH2 [SEQ ID NO: 49] for binding of TSP-1 protein to CD36, a TSP-1 receptor protein (Homo sapiens, UniProt P07996).
30.2

* * *

# Experimental system: binding of TSP-1 protein to CD36, a TSP-1 receptor protein (Homo sapiens, UniProt P07996)
# Construct: purchased novoprotein (TSP-1); R&D Systems (Fc-tagged CD36) CU45 (TSP-1); 1955-CD-050 (CD36-Fc)
# Experimental details: ELISA: blocking of CD36 binding to TSP-1 protein
# Particulars: 100 μM polypeptide, 0.25 μg/mL Fc-tagged CD36; blocking of CD36 binding to TSP-1
I would appreciate it if you labelled entries TRUE when Blocking rate (Mean, %) is 20% or higher, otherwise FALSE.

| Substance | Group |
| --- | --- |
| Ac-Gln-Asp-Ala-Glu-Asp-Asn-Thr-Ala-NH2 (Ac-QDAEDNTA-NH2) [SEQ ID NO: 16] | TRUE |

Please check the record Ac-Gln-Asp-Ala-Glu-Asp-Asn-NH2 (Ac-QDAEDN-NH2) [SEQ ID NO: 05] and state if its Blocking rate (Mean, %) is at or above 20%.
FALSE

API: above_or_equal(metric=Blocking rate (Mean, %), cutoff=20%) for item Ac-Thr-Gln-Asp-Pro-Glu-Asp-NH2 (Ac-TQDPED-NH2) [SEQ ID NO: 03]
FALSE

Say whether Ac-Ser-Gln-Asp-Ala-Glu-Asp-Asn-Thr-Val-Ser-Phe-Leu-Gln-NH2 (Ac-SQDAEDNTVSFLQ-NH2) [SEQ ID NO: 37] shows Blocking rate (Mean, %) of 20% or more.
TRUE

Given Ac-Thr-Glu-Asp-Ala-Glu-Asp-Asn-NH2 (Ac-TEDAEDN-NH2) [SEQ ID NO: 09] , state whether its Blocking rate (Mean, %) is at least 20%.
FALSE

hey, is Blocking rate (Mean, %) for this one >= 20%? Ac-Thr-Gln-Asp-Ala-Glu-Asp-Leu-NH2 (Ac-TQDAEDL-NH2) [SEQ ID NO: 12]
FALSE

Hi, just wondering whether Ac-Thr-Gln-Asp-Pro-Glu-Asp-Asn-Thr-Val-NH2 (Ac-TQDPEDNTV-NH2) [SEQ ID NO: 20] shows Blocking rate (Mean, %) of 20% or higher.
TRUE
